Kindly supply the reported IC50 of inhibition of cleavage of chemical substrate S2302 by FXIIa (OD405) values for the records listed here.
Assayed system: T1, huFXII-his (human, UniProt P00748 20-615)
T1 sequence (looked up): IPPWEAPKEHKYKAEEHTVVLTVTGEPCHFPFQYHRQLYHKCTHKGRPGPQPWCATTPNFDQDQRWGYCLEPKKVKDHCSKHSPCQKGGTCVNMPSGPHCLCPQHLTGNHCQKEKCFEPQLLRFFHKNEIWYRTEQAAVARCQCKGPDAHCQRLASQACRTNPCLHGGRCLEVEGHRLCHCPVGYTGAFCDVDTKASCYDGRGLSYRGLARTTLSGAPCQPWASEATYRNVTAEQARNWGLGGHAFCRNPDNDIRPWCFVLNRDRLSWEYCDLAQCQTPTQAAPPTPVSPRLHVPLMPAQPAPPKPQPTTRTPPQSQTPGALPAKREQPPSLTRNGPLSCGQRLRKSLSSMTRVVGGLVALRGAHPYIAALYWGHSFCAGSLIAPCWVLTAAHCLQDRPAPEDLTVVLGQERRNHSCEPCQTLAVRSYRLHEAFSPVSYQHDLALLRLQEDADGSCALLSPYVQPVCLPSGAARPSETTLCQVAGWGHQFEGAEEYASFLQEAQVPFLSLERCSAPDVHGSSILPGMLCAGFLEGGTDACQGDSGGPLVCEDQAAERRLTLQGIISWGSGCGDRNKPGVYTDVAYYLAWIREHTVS
Protocol: cell-based or functional assay
Numbers only, in µg/mL.

binder="FX-Y17-Y28 (antibody, V domains shown) VH: EVQLLESGGGLVQPGGSLRLSCAGSGFSFGSQTMSWVRQAPGKGLEWVSSISVISGRTYYADSVKGRFTISRDNSKNTLYLQMNSLRAEDTAVYYCTKQHAFDVWGQGTMVTVSS VL: EIVLTQSPATLSVSPGERATLSCRASQSVYSALAWYQQKPGQAPRLLIYGASTRATGIPARFSGSGSGTEFTLTISSLQSEDFAVYYCQQYHKWPLSFGGGTKVEIK" unit_symbol=µg/mL observed_measurement=0.0267
binder="FX-Y17-Y6 (antibody, V domains shown) VH: EVQLLESGGGLVQPGGSLRLSCAGSGFSFGSQTMSWVRQAPGKGLEWVSSISYISGRTYYADSVKGRFTISRDNSKNTLYLQMNSLRAEDTAVYYCTKSHAFDVWGQGTMVTVSS VL: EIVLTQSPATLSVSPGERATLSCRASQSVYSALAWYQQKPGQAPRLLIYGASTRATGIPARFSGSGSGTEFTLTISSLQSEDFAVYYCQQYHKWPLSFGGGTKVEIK" unit_symbol=µg/mL observed_measurement=0.0157

Could you now consider this next binder?
*Q* Which IC50 of inhibition of cleavage of chemical substrate S2302 by FXIIa (OD405) reading was recorded for the binder FX-Y17-Y34 (antibody, V domains shown) VH: EVQLLESGGGLVQPGGSLRLSCAGSGFSFGSQTMSWVRQAPGKGLEWVSSISVISRRTYYADSVKGRFTISRDNSKNTLYLQMNSLRAEDTAVYYCTRSHAFDVWGQGTMVTVSS VL: EIVLTQSPATLSVSPGERATLSCRASQSVWSNLAWYQQKPGQAPRLLIYGASTRATGIPARFSGSGSGTEFTLTISSLQSEDFAVYYCQQYHKWPLSFGGGTKVEIK ?
*A* 0.0282
